As shown below, each of these compounds has a reported inhibition value.
- ASSAY NOTES: blockers of RIG-like receptor reporter activation – cell-based, Sendai virus stimulus, luciferase, 10K MLSCN set, TLR/RLR signaling modifier project, primary screen (AID 602276);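 also: firefly luciferase from ISG56 promoter only with Renilla not read in this screen; 0% = Sendai virus plus DMSO and 100% = medium plus DMSO without virus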
- ASSAY SETUP: HEK293 RL24 IRF3 luciferase reporter, at 10 µM, stronger effect = higher value
Write the value in % as a bare number.

>>> measurement("CC1CCC(C(=O)NC(C(=O)NCCN2CCC(C)CC2)C(C)C)CC1 (stereo unspecified)")
19.4
>>> measurement("CCCN1C=CC(=C2C(=O)c3ccccc3C2=O)C=C1")
29.8
>>> measurement("CSc1ccc(-c2nc(CSCC(=O)N3CCOCC3)c(C)o2)cc1")
-23.3
>>> measurement("Cc1ccc(Br)cc1S(=O)(=O)N1CCN(c2ccccc2)CC1")
5.17

So what's the measured inhibition for this one? `COc1cccc(N2CCN(CC(=O)Nc3nnc(-c4ccccc4)s3)CC2)c1`
16

###

- ASSAY NOTES: blockers of RIG-like receptor reporter activation – cell-based, Sendai virus stimulus, luciferase, 10K MLSCN set, TLR/RLR signaling modifier project, primary screen (AID 602276);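 also: firefly luciferase from ISG56 promoter only with Renilla not read in this screen; 0% = Sendai virus plus DMSO and 100% = medium plus DMSO without virus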
- ASSAY SETUP: HEK293 RL24 IRF3 luciferase reporter, at 10 µM, stronger effect = higher value
As shown below, each of these molecules has a reported inhibition value.
Write the value in % as a bare number.

>>> measurement("CCOC(=O)N1CCC(NC(=O)c2ccc(CS(=O)(=O)c3c(Cl)cccc3Cl)o2)CC1")
16.5

So what's the measured inhibition for this one? CCOC(=O)CN1CC23C=CC(O2)C(C(=O)Nc2ccc(OC)cc2OC)C3C1=O (stereo not drawn)
8.81

So what's the measured inhibition for this one? CCOC(=O)c1sc(N)c(C(=O)OCC)c1COC(=O)C1CC(=O)N(Cc2ccco2)C1 (stereo not drawn)
-20.6

So what's the measured inhibition for this one? `O=S(=O)(c1ccccc1)c1nc(-c2ccco2)oc1NCCCN1CCOCC1`
0.535

So what's the measured inhibition for this one? `COc1ccccc1-n1c(=O)[nH]c2c(C(N)=O)nc(-c3cccnc3)nc21`
15.6

So what's the measured inhibition for this one? CC1CCCN(C(=O)C23CCC(C)(C(=O)C2)C3(C)C)C1 (stereo not drawn)
5.18

So what's the measured inhibition for this one? O=c1[nH]cnc2c1nc(SCc1ccccc1)n2C1OC(CO)C(O)C1O (stereo not drawn)
10.8

So what's the measured inhibition for this one? `Cn1cc(Cl)c(C(=O)NC2CCCC2)n1`
-2.09

So what's the measured inhibition for this one? Cc1ccnc2c(N3C(=O)C4C5C=CC(C5)C4(C)C3=O)cccc12 (stereo not drawn)
5.21

So what's the measured inhibition for this one? N#CC1=C(N)Oc2c(ccc3cccnc23)C1c1cccnc1 (stereo not drawn)
47.8

So what's the measured inhibition for this one? `COC(=O)c1ccc(C)c(NS(=O)(=O)c2ccc3c(c2)OCCO3)c1`
43.8

So what's the measured inhibition for this one? `CCN1C(=O)Cc2cc(S(=O)(=O)N3CCOCC3)ccc21`
2.07

So what's the measured inhibition for this one? COc1cc(NC(=O)C(C)Oc2ccccc2)c(C(=O)O)cc1OC (stereo not drawn)
19

So what's the measured inhibition for this one? `c1coc(CN2CN=C(Nc3nc4ccccc4s3)NC2)c1`
-12.9

So what's the measured inhibition for this one? `CCN(CC)CCCNC(=O)c1cn(C)c2ccc(S(=O)(=O)N(C)C)cc2c1=O`
7.25

So what's the measured inhibition for this one? `COc1ccc(C(=O)Nc2ccc(C)cn2)c(OC)c1`
-3.57

So what's the measured inhibition for this one? `CCCCOC(=O)CN1C(=O)c2ccc(C(=O)OCCCC)cc2C1=O`
-2.49

So what's the measured inhibition for this one? `CNC(=O)c1ccsc1NC(=O)c1ccccc1`
-11.3

So what's the measured inhibition for this one? `CCCCc1n[nH]c2c1C(=O)CC(C)(C)C2`
3.68

So what's the measured inhibition for this one? `Cn1ccnc1SCC(=O)Nc1ccc2ccccc2c1`
2.61

So what's the measured inhibition for this one? `CCC(CC)C(=O)NCCc1cc2ccc(C)cc2[nH]c1=O`
14.3

So what's the measured inhibition for this one? COC(=O)c1ccc(C2CC(=O)Nc3cc(OC)c(OC)c(OC)c32)cc1 (stereo not drawn)
11.7

So what's the measured inhibition for this one? `CCC(=O)Nc1ccc(Cl)c(NC(=O)C(C)C)c1`
5.28

###

As shown below, each of these molecules has a reported nuclei count value.
- ASSAY NOTES: reduction of polyQ htt aggregates in cells – imaging, exon1htt(103Q)mCFP cells, high-content imaging, primary screen (AID 483);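 also: compound exposure lasted 3 days before fixation; percent of the per-plate median nuclei count of sample wells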
- ASSAY SETUP: exon1htt(103Q)mCFP cell line, aggregate imaging, at 2 µM; measured here: cell count, toxicity
Write the value in % as a bare number.

>>> measurement("Cn1c(=O)n(CCN2CCOCC2)c(=O)c2c1nc1n2CCN1c1ccccc1")
98.5
>>> measurement("COc1ccc(NC2c3ncccc3C(=O)N2Cc2ccccc2)c(OC)c1 (stereo not given)")
116
>>> measurement("COc1ccc(CCN2CC(O)=C(c3nc4ccccc4c(=O)[nH]3)C2=N)cc1OC")
83.2
>>> measurement("N#CC1=C(N)Oc2cc(O)ccc2C1C1CCCCC1 (stereo not given)")
103
>>> measurement("CCOC(=O)N1CCC(NC(=O)c2ccc3c(c2)sc2nc(-c4cccc(OC)c4)cn23)CC1")
93.6
>>> measurement("COc1ccc2nc(NC(=O)C3CCCN(S(=O)(=O)c4cccc5nsnc45)C3)sc2c1 (stereo not given)")
113
>>> measurement("C=CCn1c(N)c(C(=O)NCCC2=CCCCC2)sc1=S")
104
>>> measurement("O=S(=O)(c1ccc2nc(Cc3cccc(C(F)(F)F)c3)[nH]c2c1)N1CCOCC1")
88.3
>>> measurement("Cc1cc(C)n2cc(CSc3nnnn3C)nc2n1")
106

Consider the record given below.
So what's the measured nuclei count for this one? Cc1ccc(C(=O)N2CCN(C(=O)c3ccc(C)c(C)c3)C(C)C2)cc1C (stereo not given)
94.3

###

- ASSAY NOTES: endothelial E-selectin expression blockers – imaging, HUVEC, immunofluorescence, MLSMR starter and 10KST1 sets, primary screen (AID 487);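 also: 100% = median nuclei count of all wells on the same plate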
- ASSAY SETUP: HUVEC TNFalpha-induced E-selectin immunofluorescence imaging, at 2 µM; measured here: cell number, toxicity
READOUT KIND: nuclei count (%)
Write the value in % as a bare number.

>>> measurement("CCOCC(=O)Nc1c(C(=O)Nc2ccc(OC)cc2OC)oc2ccccc12")
57.7

Consider the record given below.
So what's the measured nuclei count for this one? `COc1ccccc1Oc1coc2c(CN3CCN(C)CC3)c(O)ccc2c1=O`
89.1

###

- EXPERIMENTAL TARGET: Alpha-2C adrenergic receptor (Homo sapiens) (UniProt P18825)
- Sequence (P18825 whole entry, looked up): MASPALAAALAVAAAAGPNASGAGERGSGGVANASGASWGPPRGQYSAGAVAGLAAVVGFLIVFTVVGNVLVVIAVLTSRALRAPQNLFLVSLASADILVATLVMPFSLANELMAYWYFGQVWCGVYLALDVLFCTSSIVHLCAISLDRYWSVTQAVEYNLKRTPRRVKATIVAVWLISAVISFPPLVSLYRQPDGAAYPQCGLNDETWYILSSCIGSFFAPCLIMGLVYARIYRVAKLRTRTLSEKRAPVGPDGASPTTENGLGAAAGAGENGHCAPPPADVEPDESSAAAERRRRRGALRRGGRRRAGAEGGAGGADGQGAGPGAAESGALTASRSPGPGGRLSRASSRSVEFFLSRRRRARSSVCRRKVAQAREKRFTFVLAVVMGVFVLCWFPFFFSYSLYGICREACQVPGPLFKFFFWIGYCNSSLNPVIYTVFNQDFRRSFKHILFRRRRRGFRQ
- ASSAY NOTES: compounds altering alpha2C-coupled GIRK flux – cell-based, HEK293 alpha2C/GIRK1/2, thallium flux, primary screen (AID 624);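 also: slope of fluorescence ratio to pre-addition baseline per second over 15 to 24 s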
- ASSAY SETUP: thallium flux BTC fluorescence, at 10 µM, actives lie on both sides
READOUT KIND: slope
Answer using only a numeral; do not append any unit.

Some molecules with recorded slope:
>>> measurement("COc1ccc(C2c3c(oc4ccccc4c3=O)C(=O)N2c2ccc(C)cn2)cc1OC (stereo unspecified)")
0.00601
>>> measurement("COc1ccc(N2Cc3ccccc3C2)cc1Cl")
0.00436
>>> measurement("O=C(c1cc(S(=O)(=O)N2CCOCC2)ccc1F)N1CCCc2ccccc21")
0.00518
>>> measurement("O=C(Nc1ccc2c(c1)OCCO2)C1CCCN1S(=O)(=O)c1cccc2cccnc12 (stereo unspecified)")
0.00567
>>> measurement("CC(O)c1c(OCc2ccccc2)ncnc1OCc1ccccc1 (stereo unspecified)")
0.00502
>>> measurement("CCCS(=O)(=O)N1CCCC(C(=O)NC(C)c2ccc3c(c2)OCCO3)C1 (stereo unspecified)")
0.00535
>>> measurement("CCN1CCN(C(=O)Cn2ncc3ccsc3c2=O)CC1")
0.00578
>>> measurement("O=C(c1ccco1)N(Cc1cc2ccccc2[nH]c1=O)C1CCCCC1")
0.00525

So what's the measured slope for this one? CCOc1ccc2nc(NC(=O)C3CCCN(S(=O)(=O)c4c(C)noc4C)C3)sc2c1 (stereo unspecified)
0.00699

So what's the measured slope for this one? `O=C(Nc1ccon1)c1csc2c1CCCC2`
0.00515

So what's the measured slope for this one? `COc1ccc(OCCCC(=O)Nc2nncs2)cc1`
0.00603

###

- EXPERIMENTAL TARGET: Voltage-gated potassium channel subunit beta-2 (Rattus norvegicus) (UniProt P62483)
- Sequence (P62483 whole entry, looked up): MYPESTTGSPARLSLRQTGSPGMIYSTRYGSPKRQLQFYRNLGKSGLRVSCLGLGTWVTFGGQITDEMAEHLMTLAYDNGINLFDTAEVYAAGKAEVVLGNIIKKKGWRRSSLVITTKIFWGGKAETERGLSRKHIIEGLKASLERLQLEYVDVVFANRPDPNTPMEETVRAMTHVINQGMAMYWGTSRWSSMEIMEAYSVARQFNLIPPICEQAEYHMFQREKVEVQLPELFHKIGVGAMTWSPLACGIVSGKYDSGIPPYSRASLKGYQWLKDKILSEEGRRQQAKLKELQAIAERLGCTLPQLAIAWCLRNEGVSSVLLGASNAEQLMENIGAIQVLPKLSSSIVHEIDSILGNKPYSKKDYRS
- ASSAY NOTES: inhibitors of rat Kvbeta2 reductase activity – biochemical, NADPH fluorescence, primary screen (AID 622);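 also: slope of raw intensity against log time taken from 70 to 1610 s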
- ASSAY SETUP: recombinant KvBeta, 4-cyanobenzaldehyde reduction, at 10 µM, stronger effect = higher value
Lab note: class by fluorescence slope, see b0 = under -0.6, b1 = from -0.6 up to -0.5, b2 = -0.5 and over

Consider the worked cases shown below.
>>> category("O=C(Nc1nc(-c2ccccn2)cs1)C1CC1")
"b2"
>>> category("O=C(CSc1nnnn1C1CCCCC1)N1CCc2ccccc21")
"b1"
>>> category("Nc1sccc1C(=O)c1ccc(Cl)cc1")
"b2"
>>> category("Cc1ccc(S(=O)(=O)N2CCOCC(=O)NCCOCCNC(=O)COCC2)cc1")
"b0"
>>> category("CCOc1ccc(NC(=O)c2ccccc2O)cc1")
"b0"

Lab log: `Cc1ccc(-n2ncc3c(=O)[nH]c(SCC(=O)N4CCN(c5ccccc5)CC4)nc32)cc1` — assign fluorescence slope category
b2

Lab log: `O=C(c1cc(C2CC2)on1)N1CCN(C(c2ccccc2)c2ccccc2)CC1` — assign fluorescence slope category
b1

Lab log: `O=C(CSc1ncc(-c2ccc(F)cc2)[nH]1)N1CCCCC1` — assign fluorescence slope category
b2

Lab log: `O=C(CN1CCC(NC(=O)c2ccc(F)cc2)CC1)NCc1ccccc1F` — assign fluorescence slope category
b2

Lab log: `CCOC(=O)/C(C#N)=C(/C)c1ccc(OC)cc1` — assign fluorescence slope category
b1

Lab log: `Cc1cc(C)nc(NC(=O)c2c(-c3c(Cl)cccc3Cl)noc2C)n1` — assign fluorescence slope category
b2

Lab log: CC1=C(C(N)=O)C(c2cccnc2)n2nc(SCc3ccccc3Cl)nc2N1 (stereo not drawn) — assign fluorescence slope category
b2

Lab log: `COc1ccc(C2(C(=O)N3CCCC3)CCOCC2)cc1OC` — assign fluorescence slope category
b2

All values here come from PubChem BioAssay.
